experiment: Kinetic solubility assay in PBS pH 7.4; format: physicochemical; conditions: 25 °C, pH 7.4, aqueous buffer, kinetic from dmso stock, PBS pH 7.4, 200 μM test conc, 1% DMSO, 2 h at 25 °C
Reported solubility kinetic at 2 h values are given for each entry in this list.
property: solubility kinetic at 2 h (µM)

1. O=C1NC(=O)C(=Cc2ccc(O)c([N+](=O)[O-])c2)C(=O)N1 [2d] = 190
2. O=C1NC(=O)C(=Cc2ccc(N3CCOCC3)cc2[N+](=O)[O-])C(=O)N1 [2e] = 178
3. O=C1NC(=O)C(=C/C=C/c2ccccc2)C(=O)N1 [2i] = 41.4
4. COc1cc(C=C2C(=O)NC(=O)NC2=O)ccc1O [2c] = 195
5. O=C1NC(=O)C(=Cc2ccc(-c3ccccc3F)[nH]2)C(=O)N1 [2h] = 4.63

// data source = paper PMC12481576
